Recorded INF-γ 72 hr, Fold change, Average for the following binders
# target: human GAL9 of the human PBMC cultures (human)
# assay.name: cell-based or functional assay
Respond numerically; units are fold and should not be typed.

// query INF-γ 72 hr, Fold change, Average value for entry P9-34 (antibody, IgG1, V domains shown) VH: EVQLVESGGGLVQPGGSLRLSCAASGFTFSTYFIHWVRQAPGKGLEWVAYIYPQGGYTYYADSVKGRFTISADTSKNTAYLQMNSLRAEDTAVYYCARQSYPGVFDYWGQGTLVTVSS VL: DIQMTQSPSSLSASVGDRVTITCRASQSVSSAVAWYQQKPGKAPKLLIYSASSLYSGVPSRFSGSRSGTDFTLTISSLQPEDFATYYCQQWTIALTTFGQGTKVEIKR 0.88

Need INF-γ 72 hr, Fold change, Average of P9-24 (antibody, IgG1, V domains shown, Tested as bivalent monospecific native human full-length IgG1; also called ABS clone P9-24) VH: EVQLVESGGGLVQPGGSLRLSCAASGFTFSSYFIHWVRQAPGKGLEWVASIYPTSHSTSYADSVKGRFTISADTSKNTAYLQMNSLRAEDTAVYYCARLGYPGVMDYWGQGTLVTVSS VL: DIQMTQSPSSLSASVGDRVTITCRASQSVSSAVAWYQQKPGKAPKLLIYSASSLYSGVPSRFSGSRSGTDFTLTISSLQPEDFATYYCQQVDSRLATFGQGTKVEIKR , thanks. 0.8

Continuing:
Sample P9-37 (antibody, IgG1, V domains shown, Tested as bivalent monospecific native human full-length IgG1; also called ABS clone P9-37) VH: EVQLVESGGGLVQPGGSLRLSCAASGFTFWKYGIHWVRQAPGKGLEWVAYIYPAGGITSYADSVKGRFTISADTSKNTAYLQMNSLRAEDTAVYYCARSDYYSGMGMDYWGQGTLVTVSS VL: DIQMTQSPSSLSASVGDRVTITCRASQSVSSAVAWYQQKPGKAPKLLIYSASSLYSGVPSRFSGSRSGTDFTLTISSLQPEDFATYYCQQYYPSPSTFGQGTKVEIKR — what was its INF-γ 72 hr, Fold change, Average? 0.55

Need INF-γ 72 hr, Fold change, Average, item P9-11 (antibody, IgG1, V domains shown, Tested as bivalent monospecific native human full-length IgG1; also called ABS clone P9-11) VH: EVQLVESGGGLVQPGGSLRLSCAASGFTFSSYYIHWVRQAPGKGLEWVAYISPSGGYTYYADSVKGRFTISADTSKNTAYLQMNSLRAEDTAVYYCARGAVLYSSAMDYWGQGTLVTVSS VL: DIQMTQSPSSLSASVGDRVTITCRASQSVSSAVAWYQQKPGKAPKLLIYSASSLYSGVPSRFSGSRSGTDFTLTISSLQPEDFATYYCQQYYPSPSTFGQGTKVEIKR 0.68

Returns the measured INF-γ 72 hr, Fold change, Average for the input binder. Input: P9-57 (antibody, IgG1, V domains shown, Tested as bivalent monospecific native human full-length IgG1; also called ABS clone P9-57) VH: EVQLVESGGGLVQPGGSLRLSCAASGFTFSSYYIHWVRQAPGKGLEWVATIYPSGGYTYYADSVKGRFTISADTSKNTAYLQMNSLRAEDTAVYYCARYSYPGVLDYWGQGTLVTVSS VL: DIQMTQSPSSLSASVGDRVTITCRASQSVSSAVAWYQQKPGKAPKLLIYSASSLYSGVPSRFSGSRSGTDFTLTISSLQPEDFATYYCQQSSSFLWTFGQGTKVEIKR 0.83
